# Tested on: 786-0 renal
# assaySummary: NCI-60 one-dose screen, 48 h (100 = growth as untreated, 0 = no growth, -100 = all killed)
# runParameters: 10 µM unless noted
Compounds without any hit were thinned out: in the full panel of roughly 83,000, 20% have a hit.
resultType: growth (%)
Please respond with the number in % and leave the unit unwritten.

Use these answered entries as a reference point.
molecule	systemTested	growth (%)
O=C(O)c1ccc(-n2cc(CNc3ccc(Cl)cc3)c(-c3ccc(F)cc3)n2)cc1	786-0 renal	101
COC1=C(c2ccccc2)C(=O)C(OC)=C(c2ccccc2)C1=O	786-0 renal	99.2
COc1ccccc1/C=C/C=N/NC1=NC2C(S1)N(C)C(=O)N2c1ccccc1 (stereo not given)	786-0 renal	16.8
COc1cc(C2=NN(C(C)=O)C(c3ccc(N4CCOCC4)cc3)C2)cc(OC)c1OC (stereo not given)	786-0 renal	95.5
C=CCn1c(SCC(=O)Nc2cccc(C(=O)/C=C/c3cccc([N+](=O)[O-])c3)c2)nc2ccccc2c1=O	786-0 renal	94.8
C/C(=N\NC(=S)Nc1ccc(Br)cc1)c1cc2ccccc2oc1=O	786-0 renal	5.25
Cc1cc(C(=O)Nc2ccc(SC#N)cc2)c(C)o1	786-0 renal	88.2
O=C(Nc1ccc(F)cc1)c1cc(-c2ccc(F)cc2F)ccc1O	786-0 renal	15.5

Measured growth of COc1ccc(-c2cc(-c3ccc(Cl)cc3)nc3nc(N)nn23)cc1 : 87.7

Notebook: Clc1ccc(-c2csc(N/N=C/c3nc4ccccc4n3C3CC3)n2)cc1 , growth read as 109
